Experiment: Pharmacokinetic study, single intravenous dose
Conditions: BALB/c, mouse, in vivo, iv, 10.65 mg/kg
metric: Cmax (µg/mL)
Numeric only. Scale: µg/mL

Fill in reported Cmax for this entry: `CCc1c2c(nc3ccc(O)cc13)-c1cc3c(c(=O)n1C2)COC(=O)[C@@]3(CC)OC(=O)Nc1nc(=O)n([C@@H]2O[C@H](C)[C@@H](O)[C@H]2O)cc1F` 137

----------
Experiment: Pharmacokinetic study, single intravenous dose
Conditions: BALB/c, mouse, plasma, iv, 10 mg/kg
metric: Tmax (h)
Numeric only. Scale: h

Fill in reported Tmax for this entry: CCc1c2c(nc3ccc(OC(=O)N4CCC(N5CCCCC5)CC4)cc13)-c1cc3c(c(=O)n1C2)COC(=O)[C@]3(O)CC [CPT-11, Irinotecan] 3.24

----------
Assay: Pharmacokinetic study, single intravenous dose
Settings: BALB/c, mouse, in vivo, iv, 10.65 mg/kg
metric: half-life (h)
Numeric only. Scale: h

Fill in reported half-life for this entry: `CCc1c2c(nc3ccc(O)cc13)-c1cc3c(c(=O)n1C2)COC(=O)[C@@]3(CC)OC(=O)Nc1nc(=O)n([C@@H]2O[C@H](C)[C@@H](O)[C@H]2O)cc1F` 1.17

----------
Assay: Pharmacokinetic study, single intravenous dose
Settings: BALB/c, mouse, plasma, iv, 10 mg/kg
Procedure: Blood samples were collected at 0.083 h, 0.25 h, 0.5 h, 1 h, 2 h, 4 h, 8 h, and 12 h after administration. Plasma was prepared after centrifugation at 6000× g for 5 min and then stored at −20 °C for further analysis.
metric: Cmax (ng/mL)
Numeric only. Scale: ng/mL

Fill in reported Cmax for this entry: CCc1c2c(nc3ccc(OC(=O)N4CCC(N5CCCCC5)CC4)cc13)-c1cc3c(c(=O)n1C2)COC(=O)[C@]3(O)CC [CPT-11, Irinotecan] 481
